Molecular target: His-GST-TVMV-hRIPK1(1-324) (Homo sapiens, UniProt Q13546)
Sequence (Q13546 1-324): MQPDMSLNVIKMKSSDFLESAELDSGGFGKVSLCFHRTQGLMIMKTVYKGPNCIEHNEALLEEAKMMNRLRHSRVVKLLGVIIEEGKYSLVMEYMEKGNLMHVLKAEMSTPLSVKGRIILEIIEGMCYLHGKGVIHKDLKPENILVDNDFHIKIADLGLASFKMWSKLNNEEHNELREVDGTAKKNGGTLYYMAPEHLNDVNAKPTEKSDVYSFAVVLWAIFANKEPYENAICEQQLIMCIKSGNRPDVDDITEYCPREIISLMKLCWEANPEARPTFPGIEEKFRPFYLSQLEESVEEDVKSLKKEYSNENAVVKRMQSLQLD
Hi there, I'd appreciate the recorded IC50 for every entry that follows.
Answers are plain numbers, in nM.

Known results for compounds:
CNC(=O)c1n[nH]c2cc(-c3nc(C)c(C(=O)NCc4cc(C(F)(F)F)ccc4F)s3)ccc12 | 15
CNC(=O)c1n[nH]c2cc(-c3nc(C(=O)NCc4cc(OC(F)(F)F)ccc4F)c(C)n3C)ccc12 | 66

Record summary for CNC(=O)c1n[nH]c2cc(-c3nc(C(=O)NCCC(C)c4ccccc4)c(C)n3C)ccc12 (stereo not drawn) : reported IC50 = 230

###

System: MLKL phosphorylation in HT29-L23 human colorectal adenocarcinoma cells
Assay: MLKL Phosphorylation High-Content Assay
Format: cell-based
Conditions: Homo sapiens, necroptosis induced with TNFα, SMAC mimetic and Z-VAD, 6 h, read-out: pMLKL (IC50)
pIC50: −log10 of the molar value.
Values of pIC50 greater than or equal to 6 map to t; values below map to f.

Illustrative cases are given below, each with its answer.
CNC(=O)c1n[nH]c2cc(-c3ccc(C(=O)NCC[C@H](O)c4ccc(Cl)cc4)s3)ccc12 | f
CNC(=O)c1n[nH]c2cc(-c3nc(C)c(C(=O)NCC[C@H](O)c4ccc(Cl)cc4)s3)ccc12 | t
CNC(=O)c1n[nH]c2cc(-c3nc(C(=O)NCC[C@@H](O)c4ccc(Cl)cc4)c(C)n3C)ccc12 | f
CNC(=O)c1n[nH]c2cc(-c3nc(C)c(C(=O)NCCC(C)c4ccccc4)n3C)ccc12 (stereo not drawn) | t

Now let's try a different one.
Input line: hey, is pIC50 for this one >= 6? CNC(=O)c1n[nH]c2cc(-c3nc(C)c(C(=O)NCCC(C)c4ccccc4)s3)ccc12 (stereo not drawn)
Output line: t

###

Molecular target: His-GST-TVMV-hRIPK1(1-324) (Homo sapiens)
Sequence (Q13546 1-324): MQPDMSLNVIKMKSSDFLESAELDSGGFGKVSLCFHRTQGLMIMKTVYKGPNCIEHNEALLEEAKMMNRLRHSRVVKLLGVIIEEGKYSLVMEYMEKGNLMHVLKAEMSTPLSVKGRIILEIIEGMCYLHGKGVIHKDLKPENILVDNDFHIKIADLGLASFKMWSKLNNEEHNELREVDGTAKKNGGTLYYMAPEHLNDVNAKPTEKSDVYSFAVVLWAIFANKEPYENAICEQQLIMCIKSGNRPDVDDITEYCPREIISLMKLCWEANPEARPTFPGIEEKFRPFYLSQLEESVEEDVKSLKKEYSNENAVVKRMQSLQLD
READOUT KIND: IC50 (nM)
One number for each entry, in nM.

CNC(=O)c1n[nH]c2cc(-c3cc(C)c(C(=O)NCc4cc(OC(F)(F)F)ccc4F)s3)ccc12 | 2
CNC(=O)c1n[nH]c2cc(-c3nc(C(=O)NCc4cc(C(F)(F)F)ccc4F)c(C)n3C)ccc12 | 200
CNC(=O)c1n[nH]c2cc(-c3nc(C)c(C(=O)NCCC(C)c4ccccc4)n3C)ccc12 (stereo not drawn) | 220
CNC(=O)c1n[nH]c2cc(-c3csc(C(=O)NCc4cc(OC(F)(F)F)ccc4F)c3)ccc12 | 6.8
CC(C)NC(=O)c1n[nH]c2cc(-c3csc(C(=O)NCC[C@@H](O)c4ccc(Cl)cc4)c3)ccc12 | 800
CNC(=O)c1n[nH]c2cc(-c3ccc(C(=O)NCc4cc(OC(F)(F)F)ccc4F)s3)ccc12 | 31
CNC(=O)c1n[nH]c2cc(-c3nc(C)c(C(=O)NCc4cc(OC(F)(F)F)ccc4F)n3C)ccc12 | 30
CNC(=O)c1n[nH]c2cc(-c3nc(C(=O)NCC[C@@H](O)c4ccc(Cl)cc4)c(C)n3C)ccc12 | 570

Could you report IC50 for every entry in the following list?
1. CNC(=O)c1n[nH]c2cc(-c3nc(C)c(C(=O)NCC[C@@H](O)c4ccc(Cl)cc4)n3C)ccc12
2. CNC(=O)c1n[nH]c2cc(-c3nc(C)c(C(=O)NCC[C@H](O)c4ccc(Cl)cc4)n3C)ccc12
3. CNC(=O)c1n[nH]c2cc(-c3ncc(C(=O)NCCC(C)c4ccccc4)s3)ccc12 (stereo not drawn)

Output line:
1. 460
2. 1900
3. 280

Could you report IC50 for every entry in the following list?
1. CNC(=O)c1n[nH]c2cc(-c3nc(C(=O)NCCC(C)c4ccccc4)cs3)ccc12 (stereo not drawn)
2. CNC(=O)c1n[nH]c2cc(-c3nc(C)c(C(=O)NCc4cc(OC(F)(F)F)ccc4F)s3)ccc12
3. CNC(=O)c1n[nH]c2cc(-c3ccc(C(=O)NCCC(C)c4ccccc4)s3)ccc12 (stereo not drawn)
4. CNC(=O)c1n[nH]c2cc(-c3csc(C(=O)NCC[C@H](O)c4ccc(Cl)cc4)c3)ccc12
5. CNC(=O)c1n[nH]c2cc(-c3nc(C(=O)NCC[C@H](O)c4ccc(Cl)cc4)cs3)ccc12
6. CNC(=O)c1n[nH]c2cc(-c3nc(C(=O)NCC[C@H](O)c4ccc(Cl)cc4)c(C)n3C)ccc12
7. CNC(=O)c1n[nH]c2cc(-c3nc(C)c(C(=O)NCCC(C)c4ccccc4)s3)ccc12 (stereo not drawn)
8. CNC(=O)c1n[nH]c2cc(-c3ccc(C(=O)NCC[C@H](O)c4ccc(Cl)cc4)s3)ccc12

Output line:
170
7
17
43
120
760
8.3
220

Could you report IC50 for every entry in the following list?
1. CNC(=O)c1n[nH]c2cc(-c3nc(C(=O)NCC[C@@H](O)c4ccc(Cl)cc4)cs3)ccc12
2. CNC(=O)c1n[nH]c2cc(-c3cc(C)c(C(=O)NCCC(C)c4ccccc4)s3)ccc12 (stereo not drawn)
3. CNC(=O)c1n[nH]c2cc(-c3nc(C)c(C(=O)NCc4cc(C(F)(F)F)ccc4F)n3C)ccc12
4. CNC(=O)c1n[nH]c2cc(-c3nc(C)c(C(=O)NCC[C@H](O)c4ccc(Cl)cc4)s3)ccc12
5. CNC(=O)c1n[nH]c2cc(-c3ncc(C(=O)NCC[C@@H](O)c4ccc(Cl)cc4)s3)ccc12
6. CNC(=O)c1n[nH]c2cc(-c3nc(C)c(C(=O)NC(C)c4cc(OC(F)(F)F)ccc4F)s3)ccc12 (stereo not drawn)
7. CNC(=O)c1n[nH]c2cc(-c3cc(C)c(C(=O)NCC[C@@H](O)c4ccc(Cl)cc4)s3)ccc12

Output line:
1: 330; 2: 1.8; 3: 100; 4: 180; 5: 280; 6: 13; 7: 3.8

###

System: MLKL phosphorylation in HT29-L23 human colorectal adenocarcinoma cells
Test: MLKL Phosphorylation High-Content Assay
Format: cell-based
Details: Homo sapiens, necroptosis induced with TNFα, SMAC mimetic and Z-VAD, 6 h, read-out: pMLKL (IC50)
READOUT KIND: IC50
Just so you know, I need the unit written after the number.

CNC(=O)c1n[nH]c2cc(-c3csc(C(=O)NCC[C@@H](O)c4ccc(Cl)cc4)c3)ccc12 | 200 nM

Could you report IC50 for every entry in the following list?
1. CNC(=O)c1n[nH]c2cc(-c3ccc(C(=O)NCCC(C)c4ccccc4)s3)ccc12 (centres unmarked)
2. CNC(=O)c1n[nH]c2cc(-c3csc(C(=O)NCC[C@H](O)c4ccc(Cl)cc4)c3)ccc12
3. CNC(=O)c1n[nH]c2cc(-c3csc(C(=O)NCCC(C)c4ccccc4)c3)ccc12 (centres unmarked)

Output line:
3.9 nM
230 nM
8.2 nM

Record summary for CNC(=O)c1n[nH]c2cc(-c3cc(C)c(C(=O)NCCC(C)c4ccccc4)s3)ccc12 (centres unmarked) : reported IC50 = 2 nM

###

Test system: MLKL phosphorylation in HT29-L23 human colorectal adenocarcinoma cells
Experiment: MLKL Phosphorylation High-Content Assay
Assay type: cell-based
Details: Homo sapiens, necroptosis induced with TNFα, SMAC mimetic and Z-VAD, 6 h, read-out: pMLKL (IC50)
pIC50: −log10 of the molar value.
Category | rule: reported pIC50 within range, see class A: < 6; class B: ≥ 6 and < 7; class C: ≥ 7

Input line: Kindly identify the class of CNC(=O)c1n[nH]c2cc(-c3nc(C)c(C(=O)NC(C)c4cc(OC(F)(F)F)ccc4F)s3)ccc12 (stereo not shown) .
Output line: class C

Input line: Kindly identify the class of `CNC(=O)c1n[nH]c2cc(-c3csc(C(=O)NCc4cc(OC(F)(F)F)ccc4F)c3)ccc12` .
Output line: class C

Input line: Kindly identify the class of `CNC(=O)c1n[nH]c2cc(-c3ncc(C(=O)NCC[C@@H](O)c4ccc(Cl)cc4)s3)ccc12` .
Output line: class A

Input line: Kindly identify the class of `CC(C)NC(=O)c1n[nH]c2cc(-c3ccc(C(=O)NCC[C@H](O)c4ccc(Cl)cc4)s3)ccc12` .
Output line: class B

Input line: Kindly identify the class of `CNC(=O)c1n[nH]c2cc(-c3nc(C)c(C(=O)NCc4cc(OC(F)(F)F)ccc4F)n3C)ccc12` .
Output line: class C

Input line: Kindly identify the class of `CNC(=O)c1n[nH]c2cc(-c3nc(C)c(C(=O)NCC[C@@H](O)c4ccc(Cl)cc4)n3C)ccc12` .
Output line: class A

Input line: Kindly identify the class of `CNC(=O)c1n[nH]c2cc(-c3nc(C(=O)NCC[C@H](O)c4ccc(Cl)cc4)cs3)ccc12` .
Output line: class A

Input line: Kindly identify the class of `CNC(=O)c1n[nH]c2cc(-c3cc(C)c(C(=O)NCC[C@@H](O)c4ccc(Cl)cc4)s3)ccc12` .
Output line: class C

Input line: Kindly identify the class of `CNC(=O)c1n[nH]c2cc(-c3ccc(C(=O)NCc4cc(OC(F)(F)F)ccc4F)s3)ccc12` .
Output line: class C

Input line: Kindly identify the class of `CNC(=O)c1n[nH]c2cc(-c3nc(C)c(C(=O)NCc4cc(C(F)(F)F)ccc4F)s3)ccc12` .
Output line: class C

Input line: Kindly identify the class of `CNC(=O)c1n[nH]c2cc(-c3nc(C)c(C(=O)NCC[C@H](O)c4ccc(Cl)cc4)n3C)ccc12` .
Output line: class A

Input line: Kindly identify the class of `CNC(=O)c1n[nH]c2cc(-c3nc(C(=O)NCC[C@H](O)c4ccc(Cl)cc4)c(C)n3C)ccc12` .
Output line: class A

Input line: Kindly identify the class of CNC(=O)c1n[nH]c2cc(-c3nc(C(=O)NCCC(C)c4ccccc4)c(C)n3C)ccc12 (stereo not shown) .
Output line: class B

Input line: Kindly identify the class of `CNC(=O)c1n[nH]c2cc(-c3nc(C)c(C(=O)NCc4cc(OC(F)(F)F)ccc4F)s3)ccc12` .
Output line: class C

Entry source: patent US12275721B2
